assay: Protein binding in human plasma at 10 uM by LC/MS/MS based equilibrium dialysis analysis; type: ADME, cell-free; conditions: read-out: PPB
readout_label: fraction unbound at 10 µM

1) Clc1cc(-c2nnn[nH]2)ccc1-c1ccc(-n2ccnc2)cc1 :: < 0.005

* * *

Measured Kp of individual entries
experiment: Ratio of drug uptake in lung to plasma of C57/BL6 mouse at 3 mg/kg, iv or 30 mg/kg, po; type: ADME, organism-based
readout_label: Kp

1) Clc1cc(-c2nnn[nH]2)ccc1-c1ccc(-n2ccnc2)cc1 :: 0.38
2) Cc1cc(-n2ccnc2)cnc1-c1ccc(-c2nnn[nH]2)cc1F :: 0.62
